Substrate: CNc1ncnc2c1ncn2[C@@H]1O[C@H](COP(=O)(O)O)[C@@H](O)[C@H]1O
experiment: purified protein
Type: biochemical, Arabidopsis thaliana
conditionSummary: 20 mM potassium phosphate pH 7.2, 25 °C
// values below are reported Km
propertyName: Km (µM)

* AtMAPDA (Arabidopsis thaliana; H65A) (protein) MEWIQSLPKIELHAHLNGSIRDSTLLELARVLGEKGVIVFADVEHVIQKNDRSLVEVFKLFDLIAKLTTDHKTVTRITREVVEDFALENVVYLELRTTPKRSDSIGMSKRSYMEAVIQGLRSVSEVDIDFVTASDSQKLHNAGDGIGRKKIYVRLLLSIDRRETTESAMETVKLALEMRDVGVVGIDLSGNPLVGEWSTFLPALQYAKDNDLHITLHCGEVPNPKEIQAMLDFKPHRIGHACFFKDEDWTKLKSFRIPVEICLTSNIVTKSISSIDIHHFADLYNAKHPLILCTDDFGVFSTSLSNEYALAVRSLGLSKSETFALARAAIDATFAEDEVKQQLRFIFDSASPEHV | 5.51
* AtMAPDA (Arabidopsis thaliana; K100A) (protein) MEWIQSLPKIELHAHLNGSIRDSTLLELARVLGEKGVIVFADVEHVIQKNDRSLVEVFKLFDLIHKLTTDHKTVTRITREVVEDFALENVVYLELRTTPARSDSIGMSKRSYMEAVIQGLRSVSEVDIDFVTASDSQKLHNAGDGIGRKKIYVRLLLSIDRRETTESAMETVKLALEMRDVGVVGIDLSGNPLVGEWSTFLPALQYAKDNDLHITLHCGEVPNPKEIQAMLDFKPHRIGHACFFKDEDWTKLKSFRIPVEICLTSNIVTKSISSIDIHHFADLYNAKHPLILCTDDFGVFSTSLSNEYALAVRSLGLSKSETFALARAAIDATFAEDEVKQQLRFIFDSASPEHV | 6.89
